Source listed as patent US10308620B2.

Assay: Rodent pharmacokinetic study
Type: in vivo, rat
Conditions: 3 mg/kg oral (gavage), male Wistar rats
# maps each entry to its log10(AUC0-t)
Hello, just confirming the data are log10 of AUC0-t with units of ng·h/mL.

Solved entries (count: 2):
O=C(N[C@H]1CCCC[C@@H]1O)C1=CN(Cc2cccc(F)c2)c2ccccc2O1 [Example 7] :: 2.81
COc1ccc(CN2C=C(C(=O)N[C@H]3CCCC[C@@H]3O)Oc3ccccc32)cc1 [Example 5] :: 3.60

Problem: Name the reported log10(AUC0-t) value associated with the molecule O=C(N[C@H]1CCCC[C@@H]1O)C1=CN(Cc2cccc(F)c2F)c2ncccc2O1 [Example 33]
Result: 2.86

Problem: Queued: O=C(N[C@H]1CCCC[C@@H]1O)C1=CN(Cc2ccc(Cl)nc2)c2ccccc2O1 [Example 21]
Result: 3.63

Problem: Now the molecule O=C(N[C@H]1CCCC[C@@H]1O)C1=CN(Cc2cccc(F)c2)c2cccc(F)c2O1 [Example 51]
Result: 2.57

Problem: Also need COc1cccc(CN2C=C(C(=O)N[C@H]3CCCC[C@@H]3O)Oc3ccccc32)c1 [Example 9] , thanks.
Result: 3.07

###

Assay: Rodent pharmacokinetic study
Format: in vivo, rat
Conditions: rat, plasma, iv; 1 mg/kg i.v. (bolus), male Wistar rats
Parameter Measured: clearance (mL/min/kg)
Give just the numeric value; mL/min/kg need not be written.

Consider the reported clearance for these molecules:
O=C(N[C@H]1CCCC[C@@H]1O)C1=CN(Cc2ccc(Cl)nc2)c2ccccc2O1 [Example 21] :: 11
O=C(N[C@H]1CCCC[C@@H]1O)C1=CN(Cc2ccc(F)c(F)c2)c2ccccc2O1 [Example 19] :: 13
O=C(N[C@H]1CCCC[C@@H]1O)C1=CN(Cc2ccccn2)c2ccccc2S1 [Example 92] :: 64
O=C(N[C@H]1CCCC[C@@H]1O)C1=CN(Cc2ccncc2)c2ccccc2O1 [Example 23] :: 44
COc1cccc(CN2C=C(C(=O)N[C@H]3CCCC[C@@H]3O)Oc3ccccc32)c1 [Example 9] :: 24

Problem: Recorded clearance for COc1cc(CN2C=C(C(=O)N[C@H]3CCCC[C@@H]3O)Oc3ccccc32)ccn1 [Example 11] , please?
Result: 20

Problem: Continue with O=C(N[C@H]1CCCC[C@@H]1O)C1=CN(Cc2ccccc2)c2ccccc2O1 [Example 4]
Result: 40

Problem: What do you have for COc1ccc(CN2C=C(C(=O)N[C@H]3CCCC[C@@H]3O)Oc3ccccc32)cc1 [Example 5] ?
Result: 14

Problem: And what about the molecule O=C(N[C@H]1CCCC[C@@H]1O)C1=CN(Cc2ccccc2F)c2ccccc2O1 [Example 1] ?
Result: 19

Problem: Try O=C(N[C@H]1CCCC[C@@H]1O)C1=CN(Cc2cccc(F)c2)c2cccc(F)c2O1 [Example 51] next.
Result: 31

Problem: Param item: O=C(N[C@H]1CCCC[C@@H]1O)C1=CN(Cc2cccc(F)c2F)c2ccccc2O1 [Example 18]
Result: 17

Problem: Now the molecule O=C(N[C@H]1CCCC[C@@H]1O)C1=CN(Cc2cccc(F)c2)c2ccccc2O1 [Example 7]
Result: 29

Problem: Next up: O=C(N[C@H]1CCCC[C@@H]1O)C1=CN(Cc2cccc(F)c2F)c2ncccc2O1 [Example 33]
Result: 39

Problem: Try the molecule O=C(N[C@H]1CCCC[C@@H]1O)C1=CN(Cc2cccc(C(F)(F)F)c2)c2ccccc2O1 [Example 17]
Result: 27

###

Experiment: Rodent pharmacokinetic study
Type: in vivo, rat
Settings: rat, plasma, iv; 1 mg/kg i.v. (bolus), male Wistar rats; read-out: Vz
Parameter Measured: Vd

Some solved cases for reference:
O=C(N[C@H]1CCCC[C@@H]1O)C1=CN(Cc2ccc(F)c(F)c2)c2ccccc2O1 :: 4.4 L/kg
O=C(N[C@H]1CCCC[C@@H]1O)C1=CN(Cc2ccccc2)c2ccccc2O1 :: 4.7 L/kg
O=C(N[C@H]1CCCC[C@@H]1O)C1=CN(Cc2ccccn2)c2ccccc2S1 :: 4.2 L/kg
O=C(N[C@H]1CCCC[C@@H]1O)C1=CN(Cc2cccc(F)c2F)c2ncccc2O1 :: 3.5 L/kg
O=C(N[C@H]1CCCC[C@@H]1O)C1=CN(Cc2ccc(Cl)nc2)c2ccccc2O1 :: 1.5 L/kg

Problem: Give the measured Vd of COc1cc(CN2C=C(C(=O)N[C@H]3CCCC[C@@H]3O)Oc3ccccc32)ccn1 .
Result: 3.1 L/kg

Problem: Another: O=C(N[C@H]1CCCC[C@@H]1O)C1=CN(Cc2cccc(F)c2)c2cccc(F)c2O1
Result: 9.8 L/kg

Problem: Now consider O=C(N[C@H]1CCCC[C@@H]1O)C1=CN(Cc2ccccc2F)c2ccccc2O1 .
Result: 4 L/kg

Problem: Another compound to look at: COc1cccc(CN2C=C(C(=O)N[C@H]3CCCC[C@@H]3O)Oc3ccccc32)c1
Result: 8.3 L/kg

Problem: Moving on to the next compound: O=C(N[C@H]1CCCC[C@@H]1O)C1=CN(Cc2ccncc2)c2ccccc2O1
Result: 6.8 L/kg

Problem: Note, next up: O=C(N[C@H]1CCCC[C@@H]1O)C1=CN(Cc2cccc(F)c2)c2ccccc2O1
Result: 4.3 L/kg

Problem: Same question, COc1ccc(CN2C=C(C(=O)N[C@H]3CCCC[C@@H]3O)Oc3ccccc32)cc1 this time
Result: 5.6 L/kg

Problem: And the next one, O=C(N[C@H]1CCCC[C@@H]1O)C1=CN(Cc2cccc(C(F)(F)F)c2)c2ccccc2O1 ?
Result: 22 L/kg

Problem: Moving on to the next compound: O=C(N[C@H]1CCCC[C@@H]1O)C1=CN(Cc2cccc(F)c2F)c2ccccc2O1
Result: 3.2 L/kg

###

half-life reference
Assay: Rodent pharmacokinetic study
Format: in vivo, rat
Conditions: rat, plasma; 3 mg/kg oral (gavage), male Wistar rats
Record the value in h, omitting the unit from your answer.

Recorded half-life, per entry:
O=C(N[C@H]1CCCC[C@@H]1O)C1=CN(Cc2ccc(F)c(F)c2)c2ccccc2O1 :: 3.7
COc1ccc(CN2C=C(C(=O)N[C@H]3CCCC[C@@H]3O)Oc3ccccc32)cc1 :: 3.9
O=C(N[C@H]1CCCC[C@@H]1O)C1=CN(Cc2cccc(C(F)(F)F)c2)c2ccccc2O1 :: 2.6
COc1cc(CN2C=C(C(=O)N[C@H]3CCCC[C@@H]3O)Oc3ccccc32)ccn1 :: 1.8
O=C(N[C@H]1CCCC[C@@H]1O)C1=CN(Cc2cccc(F)c2F)c2ncccc2O1 :: 3.2

Here is the next item to consider.
Problem: Given O=C(N[C@H]1CCCC[C@@H]1O)C1=CN(Cc2ccccn2)c2ccccc2S1 , state its recorded half-life.
Result: 1.7

###

Assay: Rodent pharmacokinetic study
Assay type: in vivo, rat
Conditions: rat, plasma; 3 mg/kg oral (gavage), male Wistar rats
Answer No if Tmax is under 1 h, and Yes if it is 1 h or more.

O=C(N[C@H]1CCCC[C@@H]1O)C1=CN(Cc2cccc(C(F)(F)F)c2)c2ccccc2O1 :: Yes
COc1ccc(CN2C=C(C(=O)N[C@H]3CCCC[C@@H]3O)Oc3ccccc32)cc1 :: Yes
O=C(N[C@H]1CCCC[C@@H]1O)C1=CN(Cc2ccncc2)c2ccccc2O1 :: No
O=C(N[C@H]1CCCC[C@@H]1O)C1=CN(Cc2cccc(F)c2F)c2ncccc2O1 :: Yes

Problem: Quick check, Tmax >= 1 h? O=C(N[C@H]1CCCC[C@@H]1O)C1=CN(Cc2cccc(F)c2)c2ccccc2O1
Result: No

###

Assay: Rodent pharmacokinetic study
Type: in vivo, rat
Conditions: rat, plasma, iv; 1 mg/kg i.v. (bolus), male Wistar rats
Parameter Measured: half-life (h)
Use h as the unit, but write only the number.

Problem: Any idea what its half-life is? The compound is O=C(N[C@H]1CCCC[C@@H]1O)C1=CN(Cc2cccc(F)c2)c2ccccc2O1
Result: 1.7

Problem: What do you have for O=C(N[C@H]1CCCC[C@@H]1O)C1=CN(Cc2ccccc2F)c2ccccc2O1 ?
Result: 2.3

Problem: Input O=C(N[C@H]1CCCC[C@@H]1O)C1=CN(Cc2ccccn2)c2ccccc2S1
Result: 0.8

Problem: Next entry: COc1ccc(CN2C=C(C(=O)N[C@H]3CCCC[C@@H]3O)Oc3ccccc32)cc1
Result: 4.5

Problem: Moving on to the next compound: O=C(N[C@H]1CCCC[C@@H]1O)C1=CN(Cc2ccncc2)c2ccccc2O1
Result: 1.5

Problem: Cool, now O=C(N[C@H]1CCCC[C@@H]1O)C1=CN(Cc2cccc(C(F)(F)F)c2)c2ccccc2O1
Result: 9.2

Problem: What about this compound? COc1cccc(CN2C=C(C(=O)N[C@H]3CCCC[C@@H]3O)Oc3ccccc32)c1
Result: 4.2

Problem: Try O=C(N[C@H]1CCCC[C@@H]1O)C1=CN(Cc2ccccc2)c2ccccc2O1 next.
Result: 1.4
